Provide the recorded filipin (z-score) for the entries that follow.
system: A431; assay: filipin (cholesterol) integrated intensity within LBPA endosomes, Z-score; higher = more cholesterol in LBPA endosomes; details: compound concentration in added solution (µM; 5 µl added to 20 µl cells): 10; 18 h
Where a name gives a salt, the structure may show the parent alone.
Note: the reply should be a number with no unit written.

Ask: Requested read-out: filipin (z-score). Entry: CO[C@@H]1[C@@H](O[C@@H]2O[C@H](C)[C@@H](O[C@H]3C[C@@](C)(O)[C@@H](OC(=O)CC(C)C)[C@H](C)O3)[C@H](N(C)C)[C@H]2O)[C@@H](CC=O)C[C@@H](C)[C@@H](O)/C=C/C=C/C[C@@H](C)OC(=O)C[C@H]1OC(C)=O
Result: -0.106

Ask: Requested read-out: filipin (z-score). Entry: Nc1ccc(S(=O)(=O)NC(=O)c2ccccc2)cc1 [Sulfabenzamide]
Result: -0.451

Ask: Requested read-out: filipin (z-score). Entry: CN(C)c1nc(N(C)C)nc(N(C)C)n1
Result: -0.517

Ask: Requested read-out: filipin (z-score). Entry: Cc1nccn1CC1CCc2c(c3ccccc3n2C)C1=O (stereo unspecified) [Ondansetron Hydrochloride]
Result: -0.149

Ask: Requested read-out: filipin (z-score). Entry: NCCCC[C@H](N[C@@H](CCc1ccccc1)C(=O)O)C(=O)N1CCC[C@H]1C(=O)O
Result: -0.636

Ask: Requested read-out: filipin (z-score). Entry: CC(C)(Oc1ccc(C2CC2(Cl)Cl)cc1)C(=O)O (stereo unspecified) [Ciprofibrate]
Result: -0.419

Ask: Requested read-out: filipin (z-score). Entry: Nc1ccc(S(N)(=O)=O)cc1 [Sulfanilamide]
Result: -0.496

Ask: Requested read-out: filipin (z-score). Entry: Cn1ccnc1S
Result: -0.496

Ask: Requested read-out: filipin (z-score). Entry: CCN(CCCCOC(=O)c1ccc(OC)c(OC)c1)C(C)Cc1ccc(OC)cc1 (stereo unspecified) [Mebeverine hydrochloride]
Result: 2.46

Ask: Requested read-out: filipin (z-score). Entry: Nc1nc(=O)[nH]cc1F
Result: -0.463

Ask: Requested read-out: filipin (z-score). Entry: CC(C)NCC(O)c1cc(O)cc(O)c1 (stereo unspecified) [Metaproterenol sulfate, orciprenaline sulfate]
Result: -0.531
